# assay_info: in vivo
# condition: mouse, iv
measure: LD50

Can you share its LD50? I mean this compound: CN[C@H](CC(C)C)C(=O)N[C@H]1C(=O)N[C@@H](CC(N)=O)C(=O)N[C@H]2C(=O)N[C@H]3C(=O)N[C@H](C(=O)N[C@H](C(=O)O)c4cc(O)cc(O)c4-c4cc3ccc4O)[C@H](O)c3ccc(c(Cl)c3)Oc3cc2cc(c3O[C@@H]2O[C@H](CO)[C@@H](O)[C@H](O)[C@H]2O[C@H]2C[C@](C)(N)[C@H](O)[C@H](C)O2)Oc2ccc(cc2Cl)[C@H]1O [vancomycin]
400 to 500 mg/kg
